cell viability listing for selected compounds.
# Test system: HCT116
# test.method.notes: cell viability (CellTiter-Glo) relative to plate median (fraction of plate median); higher = more viable cells
# conditions: 10 µM; treatment time 24 h; reporter: TCF4/Wnt
// return just the number, without any unit appended

Illustrative cases are given below, each with its answer.
CC(=O)Nc1cccc(-n2c(=O)n(C3CC3)c(=O)c3c(Nc4ccc(I)cc4F)n(C)c(=O)c(C)c32)c1: 1
N#CC(=C(/N)Sc1ccccc1N)/C(C#N)=C(\N)Sc1ccccc1N: 0.938
COc1cc2nccc(Oc3ccc(NC(=O)Nc4cc(C)on4)c(Cl)c3)c2cc1OC [Tivozanib (AV-951)]: 1.11

Enquiry: Look up cell viability with HCT116 for this compound: `Nc1nc(N)c2nc(-c3cccc(O)c3)cnc2n1`
Return: 0.97

Enquiry: Enter reported cell viability observed with HCT116 for `CN(C)Cc1cccc(N=C(c2ccccc2)c2c(O)[nH]c3cc(C(=O)N(C)C)ccc23)c1`
Return: 1.13

Enquiry: State its cell viability on HCT116: `Cc1ncc(-c2ccnc(Nc3ccc(S(C)(=O)=O)cc3)n2)n1C(C)C`
Return: 0.766

Enquiry: Kindly state the measured cell viability obtained for `COc1cc2c(Nc3ccc(NC(=O)c4ccccc4)cc3)ncnc2cc1OCCCN1CCOCC1` with HCT116.
Return: 1.01

Enquiry: Which measured cell viability belongs to `O=C(Nc1cc(C(F)(F)F)cc(C(F)(F)F)c1)c1cc(Cl)ccc1O` , tested on HCT116?
Return: 0.303

Enquiry: Query the reported cell viability for HCT116; item: `CNC(=O)CN1CCC(Oc2cc3c(Nc4cccc(Cl)c4F)ncnc3cc2OC)CC1`
Return: 1.05

Enquiry: cell viability of `C[C@@H]1COC(Nc2ccc3ncnc(Nc4ccc(OCc5nccs5)c(Cl)c4)c3c2)=N1` on HCT116?
Return: 1.05

Enquiry: Quick check: cell viability on HCT116, item `COCCOc1ccc2c(c1)ncn2-c1ccc2cccc(N3CCC(N)CC3)c2n1` ?
Return: 0.556

Enquiry: Kindly state the measured cell viability obtained for `CO[C@@H](C(=O)N1Cc2[nH]nc(NC(=O)c3ccc(N4CCN(C)CC4)cc3)c2C1)c1ccccc1` with HCT116.
Return: 0.823

Enquiry: Notebook entry, HCT116 assay: cell viability of `Cc1cnc(Nc2ccc(N3CCN(C)CC3)cc2)nc1Nc1cccc(S(=O)(=O)NC(C)(C)C)c1` = ?
Return: 0.514

Enquiry: Item `O=C1NC(=O)/C(=C/c2ccc3c(c2)OC(F)(F)O3)S1` with HCT116 - cell viability?
Return: 1.15

Enquiry: Request body: readout cell viability, system HCT116, query `O=C1NC(=O)C(c2ccccc2[N+](=O)[O-])=C1Nc1ccc(O)c(Cl)c1` . Return the value.
Return: 1.06

Enquiry: Enter reported cell viability observed with HCT116 for `CCc1cc(Nc2nccc(-c3c(-c4ccc(OC)c(C(=O)Nc5c(F)cccc5F)c4)nc4ccccn34)n2)c(OC)cc1N1CCC(N2CCN(S(C)(=O)=O)CC2)CC1`
Return: 1.1

Enquiry: Could you share what cell viability was measured for O=C(NCc1ccccc1)c1csc(Nc2ccncn2)n1 [Thiazovivin] , tested on HCT116?
Return: 1.16

Enquiry: Notebook: pull reported cell viability for HCT116, entry `Cc1nc(N)sc1-c1ccnc(Nc2ccc(N3CCOCC3)cc2)n1`
Return: 1.07

Enquiry: Entry CCS(=O)(=O)Nc1ccc2c(c1)/C(=C(/Nc1ccc(CN3CCCCC3)cc1)c1ccccc1)C(=O)N2 [Hesperadin] , system HCT116: what cell viability was measured?
Return: 0.556
